Tested on: Plasmodium berghei
protocol-text: Screen against P. berghei liver stage (PbLuc), transformed with Luciferase, at 10uM
Format: functional, HepG2
experimental-conditions: tested at 10 uM
Out of some 69,000 compounds screened, about 8,600 (12%) showed an effect of 50% or more. This is one part of a sample in which strong results are shown more often than they occur.
# strict inequality: INHIBITION < 30% yields 1.0, everything else yields 0.0

Req: I wonder whether O=S(=O)(CC1CCCCO1)Nc1cnn(Cc2ccccc2)c1 (stereo not given) has INHIBITION below 30%. Can you tell?
Resp: 0.0

Req: I wonder whether Cc1cc(N2CCOCC2)ccc1NC(C)c1nc(C(C)(C)C)no1 (stereo not given) has INHIBITION below 30%. Can you tell?
Resp: 1.0

Req: I wonder whether CC(C)N1CCC(Cc2cncc(-c3cc(F)ccc3C(=O)O)n2)C1 (stereo not given) has INHIBITION below 30%. Can you tell?
Resp: 0.0

Req: I wonder whether "CN(C(=O)c1cccc(NCC(=O)O)c1)C(C1CC1)C1CC1" has INHIBITION below 30%. Can you tell?
Resp: 0.0

Req: I wonder whether "O=C(c1cscn1)N1CC[C@@H]2[C@@H]1CCN2CC1CCOCC1" has INHIBITION below 30%. Can you tell?
Resp: 1.0

Req: I wonder whether "Cc1nc(CN2CCCn3c(nc(Cn4ccnc4)cc3=O)C2)cs1" has INHIBITION below 30%. Can you tell?
Resp: 1.0

Req: I wonder whether "CS(=O)(=O)NCCC(=O)NCc1cccnc1-n1cnc2ccccc21" has INHIBITION below 30%. Can you tell?
Resp: 0.0

Req: I wonder whether "O=c1cc(Cn2ccnc2)nc2n1CCCN(Cc1ccco1)C2" has INHIBITION below 30%. Can you tell?
Resp: 1.0

Req: I wonder whether "N#Cc1ccc(C(=O)N2CC[C@H]3[C@H]2CCN3CC2CC2)cc1" has INHIBITION below 30%. Can you tell?
Resp: 1.0

Req: I wonder whether "O=C(c1ccco1)N1CC[C@H]2[C@H]1CCN2CC1CCOCC1" has INHIBITION below 30%. Can you tell?
Resp: 1.0

Req: I wonder whether CC(C)(C)OC(=O)NC1CCCN(Cc2cccs2)C1 (stereo not given) has INHIBITION below 30%. Can you tell?
Resp: 1.0

Req: I wonder whether "CC(C)(C)C(=O)N1C[C@H](c2ccsc2)[C@H]2CN(C3CCCCC3)CC[C@H]21" has INHIBITION below 30%. Can you tell?
Resp: 0.0

Req: I wonder whether O=C(c1cscn1)N1CC[C@@H]2[C@@H]1CCN2CC1CCOC1 (stereo not given in full) has INHIBITION below 30%. Can you tell?
Resp: 0.0

Req: I wonder whether "c1csc(CN2CCCN(c3ccc(Cn4ccnc4)cn3)CC2)c1" has INHIBITION below 30%. Can you tell?
Resp: 0.0

Req: I wonder whether "O=C(C1CCC1)N1C[C@@H](c2ccsc2)[C@@H]2CN(C3CCCCC3)CC[C@@H]21" has INHIBITION below 30%. Can you tell?
Resp: 0.0

Req: I wonder whether "CCOC1CCN(C(=O)NCc2ccc(CN3CCOCC3)cc2)CC1" has INHIBITION below 30%. Can you tell?
Resp: 0.0

Req: I wonder whether CC(C)N1CCC(NC(=O)c2cn(-c3ccc(F)cc3)nn2)C1 (stereo not given) has INHIBITION below 30%. Can you tell?
Resp: 1.0

Req: I wonder whether "CC(=O)NCCC(=O)NCc1cccnc1-n1cnc2ccccc21" has INHIBITION below 30%. Can you tell?
Resp: 0.0

Req: I wonder whether "Cc1nc(Cn2c(=O)cnc3ccccc32)n(C)n1" has INHIBITION below 30%. Can you tell?
Resp: 1.0

Req: I wonder whether "O=C(c1ccc(F)cc1)N1CC[C@H]2[C@H]1CCN2CC1CCOCC1" has INHIBITION below 30%. Can you tell?
Resp: 0.0

Req: I wonder whether "Cc1cc(C(F)F)nn1CC(=O)NCc1nccn1C" has INHIBITION below 30%. Can you tell?
Resp: 1.0

Req: I wonder whether "N#Cc1cccc(OCc2ccoc2C(=O)N2CCCCC2)c1" has INHIBITION below 30%. Can you tell?
Resp: 1.0

Req: I wonder whether CN1CC(C(=O)NCCc2ccc3c(c2)OCO3)CC1=O (stereo not given) has INHIBITION below 30%. Can you tell?
Resp: 1.0

Req: I wonder whether "O=c1cc(Cn2ccnc2)nc2n1CCCN(Cc1cccs1)C2" has INHIBITION below 30%. Can you tell?
Resp: 0.0

Req: I wonder whether "Cc1nc(CN2CCCn3c(nc(Cn4cncn4)cc3=O)C2)cs1" has INHIBITION below 30%. Can you tell?
Resp: 0.0

Req: I wonder whether "O=C(NCCn1ccnc1)N1CCCN(Cc2cccs2)CC1" has INHIBITION below 30%. Can you tell?
Resp: 1.0

Req: I wonder whether COC(=O)NCC(=O)N1CCCC1c1nc(-c2ccccc2F)c[nH]1 (stereo not given) has INHIBITION below 30%. Can you tell?
Resp: 0.0

Req: I wonder whether "CC(C)(C)C(=O)N1C[C@H](c2ccsc2)[C@H]2CN(C3CCCC3)CC[C@H]21" has INHIBITION below 30%. Can you tell?
Resp: 0.0

Req: I wonder whether "CN(C)C[C@H]1OC[C@@H]2CCN(C(=O)c3ccco3)C[C@@H]21" has INHIBITION below 30%. Can you tell?
Resp: 1.0

Req: I wonder whether CC(Cn1ccnc1)NC(=O)N1CCCN(Cc2cccs2)CC1 (stereo not given) has INHIBITION below 30%. Can you tell?
Resp: 1.0

Req: I wonder whether "COCCC(=O)NCc1cccnc1-n1cnc2ccccc21" has INHIBITION below 30%. Can you tell?
Resp: 0.0

Req: I wonder whether "O=c1cc(Cn2cncn2)nc2n1CCCN(Cc1ccsc1)C2" has INHIBITION below 30%. Can you tell?
Resp: 1.0

Req: I wonder whether "Cc1nnc2n1CCN(C(=O)c1ccn(-c3cccc(F)c3)n1)C2" has INHIBITION below 30%. Can you tell?
Resp: 1.0

Req: I wonder whether CC1CCc2nn(CCNC(=O)c3ccco3)c(=O)cc2C1 (stereo not given) has INHIBITION below 30%. Can you tell?
Resp: 1.0

Req: I wonder whether "Cc1ccc(C(=O)N2CC[C@H]3[C@H]2CCN3CC2CCOCC2)cc1F" has INHIBITION below 30%. Can you tell?
Resp: 0.0

Req: I wonder whether "OC1CCN(C2CCN(c3ccc(Cn4ccnc4)cn3)CC2)CC1" has INHIBITION below 30%. Can you tell?
Resp: 1.0

Req: I wonder whether Cn1cccc1C(=O)NCc1ccnc(C2CCCOC2)n1 (stereo not given) has INHIBITION below 30%. Can you tell?
Resp: 0.0

Req: I wonder whether "CN1CCc2ccc(NCc3cccs3)cc2C1=O" has INHIBITION below 30%. Can you tell?
Resp: 1.0

Req: I wonder whether "O=C(c1cccc(Cl)c1)N1CC[C@H]2[C@H]1CCN2CC1CC1" has INHIBITION below 30%. Can you tell?
Resp: 0.0

Req: I wonder whether "N#Cc1c2n(c3c(=O)[nH]cnc13)CCCCC2" has INHIBITION below 30%. Can you tell?
Resp: 1.0

Req: I wonder whether "c1cn(Cc2ccc(N3CCCN(C4CCCC4)CC3)nc2)cn1" has INHIBITION below 30%. Can you tell?
Resp: 1.0

Req: I wonder whether "Cc1ccc(Oc2ncccc2C(=O)O)c(C)c1" has INHIBITION below 30%. Can you tell?
Resp: 1.0

Req: I wonder whether Cc1nn(C)c(Cl)c1C1CCCN1C(=O)c1ccc2c(c1)COC2 (stereo not given) has INHIBITION below 30%. Can you tell?
Resp: 1.0
